// endpoint GI50 / system UO-31 renal

[[record]]
molecule = "COc1ccc(/C=C/C(=O)c2ccc(NC(=O)CSc3nnc(-c4ccc(OC)c(OC)c4)n3-c3ccccc3)cc2)cc1"
assay_target = "UO-31 renal"
measured_value = "1.48 µM"


I need GI50 for every entry listed below, if you could help.
1. COc1ccc(C(O)c2cc3c(N)c(C(=O)Nc4ccc(Br)cc4)sc3nc2C)cc1 (centres undefined)
2. NC1CCCCC1N.O=NN1CCCCCC1(P(=O)([O-])[O-])P(=O)([O-])[O-].[Na+].[Pt+2]
3. CC(=O)Nc1cccc(C#Cc2cncnc2Nc2ccc(OCc3cccc(F)c3)c(Cl)c2)n1
4. Clc1nc(Cl)c2ncn(CC#CCn3cnc4c(Cl)nc(Cl)nc43)c2n1
5. CCOC(=O)Nc1nc2cc(OC)c(OC)c(OC)c2s1
6. O=C(/C=C/c1cccc(O)c1)c1cccc(-n2cc(-c3ccc(Cl)cc3)[nH]c2=O)c1
7. Cc1cc2nc3c4cc(C=O)ccc4n(CCN(C)C)c3nc2cc1C

Response:
4.22 µM
> 100 µM
22.5 µM
1.67 µM
13.9 µM
0.558 µM
0.846 µM

Request: Need GI50 of COc1cc(C(=O)/C=C/c2c(C)n([O-])c3ccc(C(F)(F)F)cc3[n+]2=O)cc(OC)c1OC , thanks.
Response: 1.45 µM

----------
Tested on: OVCAR-5 ovarian
Assay: NCI tumour cell line growth inhibition, 48 h
Please go through the items and note down their TGI.

[[record]]
compound = "c1ccc(N2CCN(CN3CCN(c4ccccc4)C3)C2)cc1"
measured_value = "> 100 µM"

[[record]]
compound = "C/C=C1/C[C@@H](C)[C@@](C)(O)C(=O)OCC2=CC[N+]3([O-])CC[C@@H](OC1=O)[C@@H]23 (stereo partly drawn)"
measured_value = "> 100 µM"

[[record]]
compound = "CCCCc1[nH]ccc2c(C)c3nc4ccccc4c3cc12"
measured_value = "17.2 µM"


Below is a list of compounds. For each, state its recorded TGI.
1. COc1cc(C(=O)/C=C/c2c(C)n([O-])c3ccc(C(F)(F)F)cc3[n+]2=O)cc(OC)c1OC
2. Cc1ccc(-c2c3c(nn2-c2ccc(S(=O)(=O)NC(=O)Nc4ccccc4)cc2)-c2ccccc2C3)cc1
3. O=c1c2ccccc2nc(-c2ccccc2Cl)n1NCC1(O)OCC(O)C(O)C1O (stereo not drawn)
4. CC(=O)Nc1ccc(C2C(C(=O)Nc3ccccc3C)=C(C)NC(C)=C2C(=O)Nc2ccccc2C)cc1
5. O=C(N/N=C\c1c(O)ccc2ccccc12)c1ccncc1

Response:
> 83.4 µM
97.2 µM
> 100 µM
> 100 µM
> 25 µM

----------
Test system: SK-MEL-5 melanoma
Mark one answer only. Choices: label 1 (active), label 0 (inactive)

Completed entries (count: 3):
[[record]]
compound = "O=C(Nc1ccc(OCc2nnc(-c3ccc(Cl)cc3)o2)c(F)c1)Nc1ccc(Cl)c(Cl)c1"
label = "label 0"

[[record]]
compound = "CCCOC(=O)c1ccc2c(c1)[N+](=O)C(C(=O)c1ccccc1)=C(C(F)(F)F)[N+]2=O"
label = "label 0"

[[record]]
compound = "C=CC(=O)N1CC2(CCC(n3nc(-c4ccc(Oc5ccccc5)cc4)c4c(N)ncnc43)CC2)C1"
label = "label 0"


Request: Tell me the assay call for c1ccc(N2CCN(CN3CCN(c4ccccc4)C3)C2)cc1 please.
Response: label 0

Request: Consider next the compound Cc1cc2nc3c4cc(C=O)ccc4n(CCN(C)C)c3nc2cc1C in the same way.
Response: label 0

Request: Next record, please: CC(C)OC(=O)Nc1ccc(-c2nc(-c3cccc(OCCN4CCOCC4)c3)c(-c3ccnc(Br)c3)[nH]2)cc1
Response: label 0

Request: Let us now turn to Cc1ccc2c(c1)c(C1=C(c3cn(C)c4ccccc34)C(=O)NC1=O)cn2C
Response: label 0

Request: Queued: CC(=O)O[C@H]1C(=O)[C@@]2(C)[C@H]([C@H](OC(=O)c3ccccc3)[C@]3(O)C[C@H](OC(=O)[C@H](OC(=O)OC[C@@H]4COC(C)(C)O4)[C@@H](NC(=O)c4ccccc4)c4ccccc4)C(C)=C1C3(C)C)[C@]1(OC(C)=O)CO[C@@H]1C[C@@H]2O
Response: label 1

Request: Same again, this time with C=CCSSC1N=CNc2nc[nH]c21 (centres undefined)
Response: label 0

Request: What do you get for O=C(O)CN1CCN(CC(=O)O)CCN(CC(=O)O)CC1 ?
Response: label 0

Request: Repeat for the following compound: CC(=O)N1CCN([C@H]2CCC[C@@H](NC(=O)c3cc4c(F)ccc(C)c4[nH]3)C2)CC1
Response: label 0
